# Tested on: Mythimna separata
# assay-notes: Stomach toxicity against Mythimna separata (Oriental armyworm) fourth-instar larvae reared on compound pre-treated corn leaves assessed as insect mortality at 5 mg/kg measured 4 days post compound treatment
# Assay type: functional
Overview of recorded mortality at 5 mg/kg for various compounds
Field format: number, assumed %, no unit text.

>>> print(df.to_string())
                                   compound  value
0  CCc1ccc(C(=O)N(N(SOc2cccc(OC)c2)C(=O)c2cc(C)cc(C)c2)C(C)(C)C)cc1    100
1  CCc1ccc(C(=O)N(N(SOc2ccccc2Cl)C(=O)c2cc(C)cc(C)c2)C(C)(C)C)cc1     95
2  CCc1ccc(C(=O)N(N(SOc2ccccc2C(=O)OC)C(=O)c2cc(C)cc(C)c2)C(C)(C)C)cc1    100
3  CCc1ccc(C(=O)N(N(SOc2cccc(C(=O)OC)c2)C(=O)c2cc(C)cc(C)c2)C(C)(C)C)cc1     90
4  CCc1ccc(C(=O)N(N(SOc2ccc(C)c(C)c2)C(=O)c2cc(C)cc(C)c2)C(C)(C)C)cc1     70
5  CC(C)(C)N(NC(=O)c1ccc(Cl)cc1)C(=O)c1ccccc1 [HALOFENOZIDE]     70

Next, consider the following compound.
[Q] Give its mortality at 5 mg/kg value. Item: CCc1ccc(C(=O)N(N(SOc2ccc(Br)cc2)C(=O)c2cc(C)cc(C)c2)C(C)(C)C)cc1
[A] 100

---

Overview of recorded mortality at 5 mg/kg for various molecules
# Tested on: Mythimna separata
# assay-notes: Stomach toxicity against Mythimna separata (Oriental armyworm) fourth-instar larvae reared on compound pre-treated corn leaves assessed as insect mortality at 5 mg/kg measured 4 days post compound treatment
# Type: functional
Field format: number, assumed %, no unit text.

>>> df
                  compound_structure_string  value
0  CCc1ccc(C(=O)N(N(SOc2ccc(C)cc2)C(=O)c2cc(C)cc(C)c2)C(C)(C)C)cc1    100
1  COc1cccc(C(=O)N(N(SOc2ccc(Cl)cc2)C(=O)c2cc(C)cc(C)c2)C(C)(C)C)c1C    100
2  CCc1ccc(C(=O)N(N(SOc2ccccc2C)C(=O)c2cc(C)cc(C)c2)C(C)(C)C)cc1    100
3  CCc1ccc(C(=O)N(N(SOc2ccccc2)C(=O)c2cc(C)cc(C)c2)C(C)(C)C)cc1     90
4  CC(C)(C)N(C(=O)c1ccc(Cl)cc1)N(SOc1ccc(Cl)cc1)C(=O)c1ccccc1     30
5  CCc1ccc(C(=O)N(N(SOc2ccc(-c3ccccc3)cc2)C(=O)c2cc(C)cc(C)c2)C(C)(C)C)cc1    100

[Q] Give its mortality at 5 mg/kg value. Item: CCc1ccc(C(=O)N(N(SOc2cccc(C)c2)C(=O)c2cc(C)cc(C)c2)C(C)(C)C)cc1
[A] 95

[Q] Give its mortality at 5 mg/kg value. Item: CCc1ccc(C(=O)N(N(SOc2ccccc2OC)C(=O)c2cc(C)cc(C)c2)C(C)(C)C)cc1
[A] 90

[Q] Give its mortality at 5 mg/kg value. Item: CCc1ccc(C(=O)N(N(SOc2ccc(Cl)cc2Cl)C(=O)c2cc(C)cc(C)c2)C(C)(C)C)cc1
[A] 90

[Q] Give its mortality at 5 mg/kg value. Item: CCc1ccc(C(=O)N(N(SOc2c(Cl)cc(Cl)cc2Cl)C(=O)c2cc(C)cc(C)c2)C(C)(C)C)cc1
[A] 90
